# systemUnderTest: prethrombin-1 (Homo sapiens, UniProt P00734, S568A)
# Construct: generates the intermediate prethrombin-1 (Pre1) composed of kringle-2 and the protease domain; made in house
# experimentDescription: Stopped-flow rapid kinetics of FPR binding to the active site
# experimentalContext: prethrombin-1; under the assumption that kon = 1.5 μM^−1 s^−1; read-out: Kd,app (calculated from eq. 3)
pKd: −log10 of the molar value.

>  <compound>
N=C(N)NCCC[C@H](NC(=O)[C@@H]1CCCN1C(=O)[C@H](N)Cc1ccccc1)C(=O)Nc1ccc([N+](=O)[O-])cc1 [FPR, H-D-Phe-Pro-Arg-p-nitroanilide]

>  <pKd>
≤ 4.04

$$$$

----------
# systemUnderTest: prothrombin (Homo sapiens, UniProt P00734, S568A)
# Construct: Gla-domain (A1-A46), kringle-1 (C65-C143), kringle-2 (C170-C248) and the protease domain (T272-E579); made in house
# experimentDescription: Stopped-flow rapid kinetics of FPR binding to the active site
# experimentalContext: from rate constants, pH 8.0, 15 °C, read-out: Kd,app (calculated from eq. 3)
pKd: −log10 of the molar value.

>  <compound>
N=C(N)NCCC[C@H](NC(=O)[C@@H]1CCCN1C(=O)[C@H](N)Cc1ccccc1)C(=O)Nc1ccc([N+](=O)[O-])cc1 [FPR, H-D-Phe-Pro-Arg-p-nitroanilide]

>  <pKd>
≤ 3.70

$$$$

----------
# systemUnderTest: thrombin (Homo sapiens, UniProt P00734, S568A)
# Construct: the protease domain composed of the A and B chains; made in house
# experimentDescription: Equilibrium intrinsic fluorescence titration of FPR binding
# experimentalContext: thrombin; pH 8.0, 15 °C; read-out: Kd,app (direct fluorescence titration)
pKd: −log10 of the molar value.

>  <compound>
N=C(N)NCCC[C@H](NC(=O)[C@@H]1CCCN1C(=O)[C@H](N)Cc1ccccc1)C(=O)Nc1ccc([N+](=O)[O-])cc1 [FPR, H-D-Phe-Pro-Arg-p-nitroanilide]

>  <pKd>
6.55

$$$$

----------
# systemUnderTest: prethrombin-2 (Homo sapiens, UniProt P00734, S568A)
# Construct: the protease domain (T272-E579); made in house
# experimentDescription: Stopped-flow rapid kinetics of FPR binding to the active site
# experimentalContext: prethrombin-2; under the assumption that kon = 1.5 μM^−1 s^−1; read-out: Kd,app (calculated from eq. 3)

>  <compound>
N=C(N)NCCC[C@H](NC(=O)[C@@H]1CCCN1C(=O)[C@H](N)Cc1ccccc1)C(=O)Nc1ccc([N+](=O)[O-])cc1 [FPR, H-D-Phe-Pro-Arg-p-nitroanilide]

>  <systemUnderTest>
prethrombin-2 (Homo sapiens, UniProt P00734, S568A)

>  <Kd>
≥ 29 µM

$$$$

Source: paper PMC5840343
